Every entry's value here was drawn from paper PMC3120740.

target: GST-WRKY28 (Arabidopsis thaliana, UniProt Q8VWJ2 1-318); assay: EMSA; 0.5 ug protein, ~0.01 pmol probe; 3 uL 5x buffer (20% glycerol, 5 mM MgCl2, 2.5 mM EDTA, 2.5 mM DTT, 250 mM NaCl, 50 mM Tris-HCl pH 7.5, 0.25 mg/mL poly(dI-dC)) in 14 uL + 1 uL probe (final about 50 mM NaCl, 10 mM Tris, 1 mM MgCl2); room temperature, 20 min; settings: protein: recombinant; tags: N-terminal GST (pGEX-KG); label: 32P-dCTP end-fill (Klenow); 5'-GGG overhangs filled in with Klenow
Sequence (Q8VWJ2 whole entry): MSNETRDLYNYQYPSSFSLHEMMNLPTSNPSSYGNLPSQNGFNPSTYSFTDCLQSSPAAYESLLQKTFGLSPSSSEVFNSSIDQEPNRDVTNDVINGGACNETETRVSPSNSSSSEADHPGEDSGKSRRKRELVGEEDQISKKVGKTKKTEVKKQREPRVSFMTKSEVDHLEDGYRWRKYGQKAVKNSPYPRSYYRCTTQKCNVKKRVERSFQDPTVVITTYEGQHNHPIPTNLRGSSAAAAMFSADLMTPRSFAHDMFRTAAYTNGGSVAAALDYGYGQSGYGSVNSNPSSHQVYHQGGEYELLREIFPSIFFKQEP
Measure: binding result

Some solved entries appear below for comparison.
INSERT INTO measurements (binder, measure, meas_value) VALUES
  ('m2 (dsDNA) DNA 1: ATTTCTGACTATTTCAATTTCCGGAGATAT DNA 2: ATATCTCCGGAAATTGAAATAGTCAGAAAT', 'binding result', 'binds'),
  ('m2.2 (dsDNA) DNA 1: ATTTCCCGGTATTTCAATTTCCCAAGATAT DNA 2: ATATCTTGGGAAATTGAAATACCGGGAAAT', 'binding result', 'no binding'),
  ('m1 (dsDNA) DNA 1: ATTTCCCGGTATTTCAATTTGTCAAGATAT DNA 2: ATATCTTGACAAATTGAAATACCGGGAAAT', 'binding result', 'binds'),
  ('m2.1 (dsDNA) DNA 1: ATTTCCCGGTATTTCAATGGGTCAAGATAT DNA 2: ATATCTTGACCCATTGAAATACCGGGAAAT', 'binding result', 'binds');

Next up:
Data point: ICS1 -844 WK-like box (dsDNA) DNA 1: AATAGTATTGATTTTCCAAATTTAATTATA DNA 2: TATAATTAAATTTGGAAAATCAATACTATT ; binding result = no binding
